Target: MRGPRX2 (Homo sapiens)
Assay: β-arrestin recruitment assay (antagonist mode), β-arrestin-CHO cells recombinantly expressing MRGPRX2
Type: cell-based
Design: expressed in transfected cells
Conditions: versus CST-14 (EC80 1.0 µM); read-out: IC50, β-arrestin assay
measure: IC50 (nM)
Your answer should be a plain number; it is taken to be in nM.

Determine from records and report IC50 for CCCc1c(C)[nH]c2nc3ccccc3n2c1=O [Compound 1]
2420

* * *

Target: MRGPRX2 (Homo sapiens)
Sequence (Q96LB1 1-330): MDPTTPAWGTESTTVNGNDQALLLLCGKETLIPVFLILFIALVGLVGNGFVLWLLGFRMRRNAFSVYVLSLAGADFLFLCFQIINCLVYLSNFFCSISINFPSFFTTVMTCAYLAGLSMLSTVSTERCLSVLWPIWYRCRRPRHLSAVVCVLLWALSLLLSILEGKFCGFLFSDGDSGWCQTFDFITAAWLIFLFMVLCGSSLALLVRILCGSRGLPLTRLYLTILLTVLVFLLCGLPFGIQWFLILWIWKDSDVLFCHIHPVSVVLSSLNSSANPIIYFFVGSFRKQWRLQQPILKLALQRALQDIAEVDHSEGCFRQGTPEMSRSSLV
Assay: Degranulation (β-hexosaminidase release), RBL-MRGPRX2 cells
Type: cell-based
Settings: versus SP (0.3 µM)
Description: Having a competitive MRGPRX2 antagonist with subnanomolar potency in hand, we next studied its effects on MCs. Activation of MRGPRX2, which is highly expressed in skin MCs, results in degranulation and histamine release.[19] […] Degranulation as determined by β-hexosaminidase release was performed as described previously.[66],[67] […] The degranulation was quantitated as a percentage of β-hexosaminidase release by dividing the β-hexosaminidase in the sample by the total enzyme content. […]
measure: IC50 (nM)
Your answer should be a plain number; it is taken to be in nM.

Determine from records and report IC50 for `CCc1c(C(C)C)[nH]c2nc3cc(F)c(F)cc3n2c1=O`
15.5

* * *

Let's look at some compounds and their measured β-Arrestin assay % activation.
Molecular target: MRGPRX2 (Homo sapiens, UniProt Q96LB1)
Sequence (Q96LB1 1-330): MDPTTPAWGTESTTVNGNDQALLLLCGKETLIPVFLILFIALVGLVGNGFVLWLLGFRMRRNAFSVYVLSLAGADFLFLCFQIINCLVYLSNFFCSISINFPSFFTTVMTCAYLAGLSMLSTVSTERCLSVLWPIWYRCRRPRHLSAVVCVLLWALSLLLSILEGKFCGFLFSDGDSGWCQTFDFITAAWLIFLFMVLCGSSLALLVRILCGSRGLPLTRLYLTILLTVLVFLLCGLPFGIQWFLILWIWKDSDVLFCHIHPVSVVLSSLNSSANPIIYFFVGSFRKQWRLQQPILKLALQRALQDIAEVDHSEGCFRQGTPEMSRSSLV
Assay: β-arrestin assay (agonist mode), β-arrestin CHO cells recombinantly expressing MRGPRX2
Format: cell-based
Settings: normalized to CST-14 (EC80 5,000 nM)

Sample records with β-Arrestin assay % activation:
Determine from records and report β-Arrestin assay % activation for CCc1c(-c2cccs2)[nH]c2nc3ccccc3n2c1=O [Compound 16]
-2%

Determine from records and report β-Arrestin assay % activation for CSc1cc(C(C)C)nc2nc3ccccc3n12 [Compound 19]
-1%

Determine from records and report β-Arrestin assay % activation for CC(C)c1cc(=S)n2c(nc3ccccc32)[nH]1 [Compound 18]
-1%

---
Determine from records and report β-Arrestin assay % activation for CC(C)c1cc(=O)n2c(nc3ccccc32)[nH]1 [Compound 7]
0%

Determine from records and report β-Arrestin assay % activation for CCc1c(C(C)C)[nH]c2nc3cc(Cl)c(Cl)cc3n2c1=O [Compound 25]
1%
